subject-of-test: EPHB2 (UniProt P29323)
Sequence (P29323 whole entry, looked up): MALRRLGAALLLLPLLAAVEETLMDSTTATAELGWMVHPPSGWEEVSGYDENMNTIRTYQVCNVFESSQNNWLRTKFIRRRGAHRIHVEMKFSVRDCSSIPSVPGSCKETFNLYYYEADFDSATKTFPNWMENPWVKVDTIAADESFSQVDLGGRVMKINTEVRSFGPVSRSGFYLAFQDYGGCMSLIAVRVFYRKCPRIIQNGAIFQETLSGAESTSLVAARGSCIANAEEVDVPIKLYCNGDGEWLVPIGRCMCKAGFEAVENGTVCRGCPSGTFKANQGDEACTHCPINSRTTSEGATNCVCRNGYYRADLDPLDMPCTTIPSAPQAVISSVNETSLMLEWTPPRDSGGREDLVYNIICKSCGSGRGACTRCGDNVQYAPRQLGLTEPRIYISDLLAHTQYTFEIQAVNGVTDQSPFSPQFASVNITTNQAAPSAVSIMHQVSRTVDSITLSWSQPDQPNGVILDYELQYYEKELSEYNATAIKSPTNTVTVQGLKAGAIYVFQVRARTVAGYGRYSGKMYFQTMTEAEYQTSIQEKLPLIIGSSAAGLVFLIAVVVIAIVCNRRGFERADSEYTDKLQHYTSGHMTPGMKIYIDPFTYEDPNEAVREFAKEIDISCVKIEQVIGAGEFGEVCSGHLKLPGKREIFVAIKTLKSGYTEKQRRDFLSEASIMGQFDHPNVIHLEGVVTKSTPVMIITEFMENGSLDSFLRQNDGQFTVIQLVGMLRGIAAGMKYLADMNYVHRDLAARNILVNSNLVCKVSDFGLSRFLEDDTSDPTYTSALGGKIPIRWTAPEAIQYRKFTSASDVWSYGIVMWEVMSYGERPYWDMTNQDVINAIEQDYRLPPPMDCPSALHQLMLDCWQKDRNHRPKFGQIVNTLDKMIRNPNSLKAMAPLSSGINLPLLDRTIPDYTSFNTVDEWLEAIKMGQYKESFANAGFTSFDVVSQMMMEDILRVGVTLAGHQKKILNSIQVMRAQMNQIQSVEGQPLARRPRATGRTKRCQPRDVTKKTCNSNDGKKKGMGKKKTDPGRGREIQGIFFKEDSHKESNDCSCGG
experiment-description: phosphorylation enrichment, bacterial display (enrichment ratio); higher = better substrate or ligand; peptides without Tyr show the background;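 also: 11-residue human phosphosite peptides and single-mutation variants displayed on the E. coli surface, counted by deep sequencing, each peptide's frequency after selection divided by its frequency in the unselected input library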;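 also: frequency after pTyr selection over input frequency; kinase dosed for 20-30% of maximal phosphorylation in three min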
Recorded phosphorylation enrichment split into classes bin 0: < 0.5; bin 1: ≥ 0.5 and < 0.7; bin 2: ≥ 0.7

# monomer-sequence, group
data = [
    ("PEVSGYCHCAD [TG_Y234]", "bin 2"),
    ("CVVVPYEPPEV [TP53_Y220_S215C]", "bin 1"),
    ("PEADKYHLTFA [FGG_Y300_R301H_YF]", "bin 2"),
    ("SSSGAYGGGFG [KRT19_Y61_YF]", "bin 0"),
    ("DVRQEYPGMIL [PLXND1_Y616]", "bin 1"),
    ("SVTCTYSPAVN [TP53_Y126_L130V]", "bin 2"),
    ("LNEWHYGGLTG [PGAM2_Y92_R90W]", "bin 0"),
    ("RQQQDYWLIDV [ANPEP_Y600]", "bin 2"),
    ("KKYPDYIQSAM [SGMS2_Y59_I62S]", "bin 0"),
    ("SLVGCYNLTFM [HS6ST3_Y323]", "bin 2"),
    ("CTTIHCNYMCN [TP53_Y234_Y234C]", "bin 1"),
]
